inhibition listing for selected molecules.
tested on: Ribosomal RNA A-site; experiment: Displacement of F-NEO from human cytosolic rRNA-A site after 10 to 20 mins by fluorescence assay relative to NEO; format: nucleic-acid assay; parameters: concentration or dose not given beside the values

compound	study.target	units.text	inhibition
NC[C@@H]1O[C@H](O[C@H]2[C@@H](O)[C@H](O[C@@H]3[C@@H](O)[C@H](N)C[C@H](N)[C@H]3O[C@H]3O[C@H](CN)[C@@H](O)[C@H](O)[C@H]3N)O[C@@H]2CNC(=O)CCc2ccc3ccc4cccc5ccc2c3c45)[C@H](N)[C@@H](O)[C@@H]1O	Ribosomal RNA A-site	%	39
NC[C@@H]1O[C@H](O[C@H]2[C@@H](O)[C@H](O[C@@H]3[C@@H](O)[C@H](N)C[C@H](N)[C@H]3O[C@H]3O[C@H](CN)[C@@H](O)[C@H](O)[C@H]3N)O[C@@H]2CSCCNC(=O)CCCc2ccc3ccc4cccc5ccc2c3c45)[C@H](N)[C@@H](O)[C@@H]1O	Ribosomal RNA A-site	%	66
NC[C@@H]1O[C@H](O[C@H]2[C@@H](O)[C@H](O[C@@H]3[C@@H](O)[C@H](N)C[C@H](N)[C@H]3O[C@H]3O[C@H](CN)[C@@H](O)[C@H](O)[C@H]3N)O[C@@H]2CNC(=O)Cc2ccc3ccc4cccc5ccc2c3c45)[C@H](N)[C@@H](O)[C@@H]1O	Ribosomal RNA A-site	%	38

###

biological target: Ribosomal RNA A-site; experiment: Displacement of F-NEO from human cytosolic rRNA-A site after 10 to 20 mins by fluorescence assay; format: nucleic-acid assay

compound	study.target	IC50, nM
NC[C@@H]1O[C@H](O[C@H]2[C@@H](O)[C@H](O[C@@H]3[C@@H](O)[C@H](N)C[C@H](N)[C@H]3O[C@H]3O[C@H](CN)[C@@H](O)[C@H](O)[C@H]3N)O[C@@H]2CNC(=O)Cc2ccc3ccc4cccc5ccc2c3c45)[C@H](N)[C@@H](O)[C@@H]1O	Ribosomal RNA A-site	375
NC[C@@H]1O[C@H](O[C@H]2[C@@H](O)[C@H](O[C@@H]3[C@@H](O)[C@H](N)C[C@H](N)[C@H]3O[C@H]3O[C@H](CN)[C@@H](O)[C@H](O)[C@H]3N)O[C@@H]2CSCCNC(=S)NCCCCCCNC(=O)CCCc2ccc3ccc4cccc5ccc2c3c45)[C@H](N)[C@@H](O)[C@@H]1O	Ribosomal RNA A-site	252
NC[C@@H]1O[C@H](O[C@H]2[C@@H](O)[C@H](O[C@@H]3[C@@H](O)[C@H](N)C[C@H](N)[C@H]3O[C@H]3O[C@H](CN)[C@@H](O)[C@H](O)[C@H]3N)O[C@@H]2CSCCNC(=O)Cc2ccc3ccc4cccc5ccc2c3c45)[C@H](N)[C@@H](O)[C@@H]1O	Ribosomal RNA A-site	97
NC[C@@H]1O[C@H](O[C@H]2[C@@H](O)[C@H](O[C@@H]3[C@@H](O)[C@H](N)C[C@H](N)[C@H]3O[C@H]3O[C@H](CN)[C@@H](O)[C@H](O)[C@H]3N)O[C@@H]2CSCCNC(=O)CCCc2ccc3ccc4cccc5ccc2c3c45)[C@H](N)[C@@H](O)[C@@H]1O	Ribosomal RNA A-site	175

###

assay: Inhibition of AAC(3)-4 (unknown origin)
Calls of active or inactive are those of the source. The rule behind the calls is not given here.

compound	inhibition
NC[C@@H]1O[C@H](O[C@H]2[C@@H](O)[C@H](O[C@@H]3[C@@H](O)[C@H](N)C[C@H](N)[C@H]3O[C@H]3O[C@H](CN)[C@@H](O)[C@H](O)[C@H]3N)O[C@@H]2CSCCNC(=O)CCc2ccc3ccc4cccc5ccc2c3c45)[C@H](N)[C@@H](O)[C@@H]1O	Active
NC[C@@H]1O[C@H](O[C@H]2[C@@H](O)[C@H](O[C@@H]3[C@@H](O)[C@H](N)C[C@H](N)[C@H]3O[C@H]3O[C@H](CN)[C@@H](O)[C@H](O)[C@H]3N)O[C@@H]2CSCCNC(=O)Cc2ccc3ccc4cccc5ccc2c3c45)[C@H](N)[C@@H](O)[C@@H]1O	Active

###

biological target: Ribosomal RNA A-site; test: Displacement of F-NEO from human mitochondrial rRNA-A site after 10 to 20 mins by fluorescence assay; type: nucleic-acid assay
IC50 listing for selected compounds.

compound	IC50, nM
NC[C@@H]1O[C@H](O[C@H]2[C@@H](O)[C@H](O[C@@H]3[C@@H](O)[C@H](N)C[C@H](N)[C@H]3O[C@H]3O[C@H](CN)[C@@H](O)[C@H](O)[C@H]3N)O[C@@H]2CSCCNC(=S)NCCCCCCNC(=O)CCCc2ccc3ccc4cccc5ccc2c3c45)[C@H](N)[C@@H](O)[C@@H]1O	235
NC[C@@H]1O[C@H](O[C@H]2[C@@H](O)[C@H](O[C@@H]3[C@@H](O)[C@H](N)C[C@H](N)[C@H]3O[C@H]3O[C@H](CN)[C@@H](O)[C@H](O)[C@H]3N)O[C@@H]2CNC(=O)CCCc2ccc3ccc4cccc5ccc2c3c45)[C@H](N)[C@@H](O)[C@@H]1O	465
NC[C@@H]1O[C@H](O[C@H]2[C@@H](O)[C@H](O[C@@H]3[C@@H](O)[C@H](N)C[C@H](N)[C@H]3O[C@H]3O[C@H](CN)[C@@H](O)[C@H](O)[C@H]3N)O[C@@H]2CNC(=O)Cc2ccc3ccc4cccc5ccc2c3c45)[C@H](N)[C@@H](O)[C@@H]1O	339
NC[C@@H]1O[C@H](O[C@H]2[C@@H](O)[C@H](O[C@@H]3[C@@H](O)[C@H](N)C[C@H](N)[C@H]3O[C@H]3O[C@H](CN)[C@@H](O)[C@H](O)[C@H]3N)O[C@@H]2CNC(=O)CCc2ccc3ccc4cccc5ccc2c3c45)[C@H](N)[C@@H](O)[C@@H]1O	373
NC[C@@H]1O[C@H](O[C@H]2[C@@H](O)[C@H](O[C@@H]3[C@@H](O)[C@H](N)C[C@H](N)[C@H]3O[C@H]3O[C@H](CN)[C@@H](O)[C@H](O)[C@H]3N)O[C@@H]2CSCCNC(=O)Cc2ccc3ccc4cccc5ccc2c3c45)[C@H](N)[C@@H](O)[C@@H]1O	90
NC[C@@H]1O[C@H](O[C@H]2[C@@H](O)[C@H](O[C@@H]3[C@@H](O)[C@H](N)C[C@H](N)[C@H]3O[C@H]3O[C@H](CN)[C@@H](O)[C@H](O)[C@H]3N)O[C@@H]2CSCCNC(=O)CCCc2ccc3ccc4cccc5ccc2c3c45)[C@H](N)[C@@H](O)[C@@H]1O	168
NC[C@@H]1O[C@H](O[C@H]2[C@@H](O)[C@H](O[C@@H]3[C@@H](O)[C@H](N)C[C@H](N)[C@H]3O[C@H]3O[C@H](CN)[C@@H](O)[C@H](O)[C@H]3N)O[C@@H]2CSCCNC(=O)CCc2ccc3ccc4cccc5ccc2c3c45)[C@H](N)[C@@H](O)[C@@H]1O	211

###

tested on: Staphylococcus aureus; assay: Antibacterial activity against methicillin-resistant Staphylococcus aureus SU-5 after 15 to 20 hrs by CLSI protocol based microdilution assay; type: functional

compound	MIC / µM
NC[C@@H]1O[C@H](O[C@H]2[C@@H](O)[C@H](O[C@@H]3[C@@H](O)[C@H](N)C[C@H](N)[C@H]3O[C@H]3O[C@H](CN)[C@@H](O)[C@H](O)[C@H]3N)O[C@@H]2CSCCNC(=O)CCCc2ccc3ccc4cccc5ccc2c3c45)[C@H](N)[C@@H](O)[C@@H]1O	25
NC[C@@H]1O[C@H](O[C@H]2[C@@H](O)[C@H](O[C@@H]3[C@@H](O)[C@H](N)C[C@H](N)[C@H]3O[C@H]3O[C@H](CN)[C@@H](O)[C@H](O)[C@H]3N)O[C@@H]2CSCCNC(=S)NCCCCCCNC(=O)CCCc2ccc3ccc4cccc5ccc2c3c45)[C@H](N)[C@@H](O)[C@@H]1O	50
NC[C@@H]1O[C@H](O[C@H]2[C@@H](O)[C@H](O[C@@H]3[C@@H](O)[C@H](N)C[C@H](N)[C@H]3O[C@H]3O[C@H](CN)[C@@H](O)[C@H](O)[C@H]3N)O[C@@H]2CNC(=O)CCCc2ccc3ccc4cccc5ccc2c3c45)[C@H](N)[C@@H](O)[C@@H]1O	25
NC[C@@H]1O[C@H](O[C@H]2[C@@H](O)[C@H](O[C@@H]3[C@@H](O)[C@H](N)C[C@H](N)[C@H]3O[C@H]3O[C@H](CN)[C@@H](O)[C@H](O)[C@H]3N)O[C@@H]2CSCCNC(=O)Cc2ccc3ccc4cccc5ccc2c3c45)[C@H](N)[C@@H](O)[C@@H]1O	25

###

test: Antibacterial activity against NEO-sensitive Enterobacter cloacae 13047 at 6.25 uM after 15 to 20 hrs by CLSI protocol based microdilution assay relative to control; type: functional, Enterobacter cloacae subsp. cloacae, ATCC 13047

compound	units.text	Activity
NC[C@@H]1O[C@H](O[C@H]2[C@@H](O)[C@H](O[C@@H]3[C@@H](O)[C@H](N)C[C@H](N)[C@H]3O[C@H]3O[C@H](CN)[C@@H](O)[C@H](O)[C@H]3N)O[C@@H]2CSCCNC(=S)NCCCCCCNC(=O)CCCc2ccc3ccc4cccc5ccc2c3c45)[C@H](N)[C@@H](O)[C@@H]1O	%	29
NC[C@@H]1O[C@H](O[C@H]2[C@@H](O)[C@H](O[C@@H]3[C@@H](O)[C@H](N)C[C@H](N)[C@H]3O[C@H]3O[C@H](CN)[C@@H](O)[C@H](O)[C@H]3N)O[C@@H]2CSCCNC(=O)CCCc2ccc3ccc4cccc5ccc2c3c45)[C@H](N)[C@@H](O)[C@@H]1O	%	0
NC[C@@H]1O[C@H](O[C@H]2[C@@H](O)[C@H](O[C@@H]3[C@@H](O)[C@H](N)C[C@H](N)[C@H]3O[C@H]3O[C@H](CN)[C@@H](O)[C@H](O)[C@H]3N)O[C@@H]2CSCCNC(=O)CCc2ccc3ccc4cccc5ccc2c3c45)[C@H](N)[C@@H](O)[C@@H]1O	%	0
